Where do these numbers come from? They come from the Immune Epitope Database (IEDB).

- TARGET SYSTEM: HLA-A*03:01
- PROCEDURE SUMMARY: IEDB peptide-MHC binding, purified MHC/competitive/radioactivity; bounds were set here for any values at or beyond the usual limits of such assays
- TEST CONTEXT: source organism: Hepacivirus hominis
pIC50: −log10 of the molar value.

{"BIOSEQUENCE": "TLHGPTPLLY", "pIC50": 6.95}
{"BIOSEQUENCE": "RLLAPITAY", "pIC50": 8.40}
{"BIOSEQUENCE": "HLHAPTGSGK", "pIC50": 7.77}
{"BIOSEQUENCE": "WMNSTGFTK", "pIC50": 6.72}
{"BIOSEQUENCE": "AVCTRGVAK", "pIC50": 6.41}
{"BIOSEQUENCE": "HLIFCHSKK", "pIC50": 6.40}
{"BIOSEQUENCE": "HLIFCHSKKK", "pIC50": 6.41}
